Reported MIC values follow for various molecules
# Tested on: Mycobacterium tuberculosis H37Rv
# MEASUREMENT NOTES: Mycobacterium tuberculosis H37Rv Inhibition Assay (Whole Cell Assay)
# Assay type: cell-based
# RUN CONDITIONS: ATCC 25618 / H37Rv, H37Rv strain (ATCC25618), Middlebrook 7H9, six days at 37° C., resazurin fluorescence after 48 hours
RESULT TYPE: MIC

- CCc1ccc([C@H]2C[C@@H](C(F)(F)F)n3ncc(C(=O)NCc4ccc(OC)cc4)c3N2)cc1 (single isomer, unassigned) [Example 1a]: ≤ 1 µM
- CCc1ccc([C@H]2C[C@@H](C(C)(F)F)n3ncc(C(=O)NCc4ccc(C)cc4)c3N2)cc1 (relative stereo) [Example 68]: ≤ 1 µM
- CCc1ccc([C@@H]2C[C@H](C(F)(F)F)n3ncc(C(=O)NCc4ccc(OC)cc4)c3N2)cc1 (single isomer, unassigned) [Example 1b]: > 2 µM
- CCc1ccc([C@H]2C[C@@H](C(F)(F)F)n3ncc(C(=O)NCc4ccc(OC)cc4OC)c3N2)cc1 (relative stereo) [Example 46]: > 2 µM
- CCc1ccc([C@H]2C[C@@H](C(F)(F)F)n3ncc(C(=O)NCc4cc(F)cc(F)c4)c3N2)cc1 (relative stereo) [Example 17]: ≤ 1 µM
- CCc1ccc([C@H]2C[C@@H](C(F)(F)F)n3ncc(C(=O)NCc4ccccc4Cl)c3N2)cc1 (relative stereo) [Example 73]: 1 to 2 µM

====

# Tested on: Mycobacterium tuberculosis H37Rv
# MEASUREMENT NOTES: Mycobacterium tuberculosis H37Rv Inhibition Assay (Whole Cell Assay)
# Format: cell-based
# RUN CONDITIONS: ATCC 25618 / H37Rv, H37Rv strain (ATCC25618), Middlebrook 7H9, six days at 37° C., resazurin fluorescence after 48 hours
RESULT TYPE: MIC

• CCc1ccc([C@H]2C[C@@H](C(F)F)n3ncc(C(=O)NCc4ccc(C)cc4)c3N2)cc1 (relative stereo) [Example 33] = ≤ 1 µM
• CCc1ccc([C@H]2C[C@@H](C(F)(F)F)n3ncc(C(=O)NCc4ccccc4)c3N2)cc1 (relative stereo) [Example 15] = ≤ 1 µM
• Cc1ccc(C2CC(C(F)(F)F)n3ncc(C(=O)NCc4ccccc4Cl)c3N2)cc1 (centres unmarked) [Example 52] = > 2 µM
• CCc1ccc([C@H]2C[C@@H](C(F)(F)F)n3ncc(C(=O)NCc4ccc(Cl)nc4)c3N2)cc1 [Example 103] = ≤ 1 µM
• CCc1ccc([C@H]2C[C@@H](C(F)(F)F)n3ncc(C(=O)NCc4ccoc4)c3N2)cc1 (relative stereo) [Example 12] = ≤ 1 µM
• Cc1ccc([C@H]2C[C@@H](C(F)(F)F)n3ncc(C(=O)NCc4cccc(C)c4)c3N2)cc1 (relative stereo) [Example 24] = ≤ 1 µM
• CCc1ccc([C@H]2C[C@@H](C)n3ncc(C(=O)NCc4ccc(OC)cc4)c3N2)cc1 (relative stereo) [Example 23] = ≤ 1 µM
• CCc1ccc([C@H]2C[C@@H](C(F)(F)F)n3ncc(C(=O)NCc4ccc(Cl)nc4)c3N2)cc1 (relative stereo) [Example 76] = 1 to 2 µM
• CCc1ccc(C2CC(C(F)(F)F)n3ncc(C(=O)NCc4cccs4)c3N2)cc1 (centres unmarked) [Example 40] = ≤ 1 µM
• CCc1ccc([C@H]2C[C@@H](C(F)F)n3ncc(C(=O)NCc4ccc(OC)cc4)c3N2)cc1 (relative stereo) [Example 32] = ≤ 1 µM
• Cc1ccc(CNC(=O)c2cnn3c2NC(c2ccc(C)cc2)CC3C(F)F)cc1 (centres unmarked) [Example 51] = > 2 µM
• Cc1ccc([C@H]2C[C@@H](C(F)(F)F)n3ncc(C(=O)NCc4ccco4)c3N2)cc1 (relative stereo) [56′, reference compound] = > 2 µM
• Cc1ccc([C@H]2C[C@@H](C(F)(F)F)n3ncc(C(=O)NCc4ccccc4C(F)(F)F)c3N2)cc1 (relative stereo) [Example 43] = > 2 µM
• CCc1ccc([C@H]2C[C@@H](C(F)(F)F)n3ncc(C(=O)NCc4ccc(OC)nc4)c3N2)cc1 [Example 102] = ≤ 1 µM
